- studyTarget: Human recombinant CETP (Homo sapiens, UniProt P11597)
- Sequence (P11597 18-493): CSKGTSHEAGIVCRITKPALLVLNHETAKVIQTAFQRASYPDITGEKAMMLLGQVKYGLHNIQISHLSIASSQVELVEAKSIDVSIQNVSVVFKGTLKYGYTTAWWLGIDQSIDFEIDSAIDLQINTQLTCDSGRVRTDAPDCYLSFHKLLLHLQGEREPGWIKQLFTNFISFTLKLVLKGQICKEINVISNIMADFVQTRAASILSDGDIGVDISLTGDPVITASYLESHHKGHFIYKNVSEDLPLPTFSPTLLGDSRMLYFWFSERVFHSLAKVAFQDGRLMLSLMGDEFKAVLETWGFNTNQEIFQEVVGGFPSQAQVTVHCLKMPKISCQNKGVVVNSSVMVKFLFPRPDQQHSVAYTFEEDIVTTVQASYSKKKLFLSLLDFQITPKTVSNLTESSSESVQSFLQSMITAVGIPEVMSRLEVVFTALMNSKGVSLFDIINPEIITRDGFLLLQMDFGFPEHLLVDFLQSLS
- assayName: Assay of CETP Inhibition Using Purified Components (Reconstituted Buffer Assay)
- measurementContext: transfer of [3H]CE from HDL to LDL, 2 hours at 37° C.
pIC50: −log10 of the molar value.

# compound, reportedRelation, pIC50
rows = [
    ("OC(CN(Cc1cccc(OC(F)(F)F)c1)C1CC1)C(F)(F)F (stereo not drawn)", "=", 4.70),
    ("CCc1cc(Oc2cccc(N(CC3CCCCC3)CC(O)C(F)(F)F)c2)ccc1Cl (stereo not drawn)", "=", 4.96),
    ("OC(CN(Cc1ccc(OC(F)(F)F)cc1)CC(O)C(F)(F)F)C(F)(F)F (stereo not drawn)", "=", 4.22),
    ("CC1CCC(N(Cc2cccc(C(F)(F)F)c2)CC(O)C(F)(F)F)CC1 (stereo not drawn)", "=", 4.82),
    ("C=C(CN(CC(O)C(F)(F)F)c1cccc(OC(F)(F)F)c1)C(=O)OC (stereo not drawn)", "=", 4.22),
    ("C#CCN(CC(O)C(F)(F)F)c1cccc(OC(F)(F)F)c1 (stereo not drawn)", "=", 4.30),
    ("CC(C)N(Cc1cccc(OC(F)(F)F)c1)CC(O)C(F)(F)F (stereo not drawn)", "<", 4.00),
    ("CC(C)CCN(CC(O)C(F)(F)F)c1cccc(OC(F)(F)F)c1 (stereo not drawn)", "=", 4.35),
    ("COC(=O)C=CCN(CC(O)C(F)(F)F)c1cccc(OC(F)(F)F)c1 (stereo not drawn)", "=", 4.10),
    ("COCC=CCN(CC(O)C(F)(F)F)c1cccc(OC(F)(F)F)c1 (stereo not drawn)", "=", 4.26),
    ("OC(CN(Cc1cccc(C(F)(F)F)c1)CC(O)C(F)(F)F)C(F)(F)F (stereo not drawn)", "=", 4.82),
    ("CC(C)=CCN(CC(O)C(F)(F)F)c1cccc(OC(F)(F)F)c1 (stereo not drawn)", "=", 4.35),
    ("CCCN(Cc1cccc(OC(F)(F)F)c1)CC(O)C(F)(F)F (stereo not drawn)", "<", 4.00),
    ("OC(CN(Cc1ccccc1)CC(O)C(F)(F)F)C(F)(F)F (stereo not drawn)", "<", 4.00),
    ("CCCCCC=CCN(CC(O)C(F)(F)F)c1cccc(OC(F)(F)F)c1 (stereo not drawn)", "=", 4.74),
]

Cited source: patent US6787570B2
